Attribution: paper PMC3072105

- target-of-assay: T1, KvAP channel from Aeropyrum pernix, wild type (Aeropyrum pernix, UniProt Q9YDF8 14-295)
- T1 sequence (looked up): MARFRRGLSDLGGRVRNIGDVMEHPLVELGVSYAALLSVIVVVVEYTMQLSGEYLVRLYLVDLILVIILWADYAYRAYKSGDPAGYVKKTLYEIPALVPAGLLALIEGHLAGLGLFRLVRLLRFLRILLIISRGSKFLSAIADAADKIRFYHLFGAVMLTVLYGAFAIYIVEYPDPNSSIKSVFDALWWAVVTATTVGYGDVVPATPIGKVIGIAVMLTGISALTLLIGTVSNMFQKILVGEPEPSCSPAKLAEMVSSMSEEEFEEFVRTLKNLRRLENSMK
- protocol-details: electrophysiology
endpoint-name: pKd
Scale explanation: pKd corresponds to minus log10 of a concentration expressed in moles per litre.

Prompt: pKd lookup needed for GNHAEIYSNHHMMSHVGGGR [synthetic φD peptide] , thanks.
Completion: 4.67
